Below, each entry is listed alongside its reported protein stability index.
B1: GNAI1 (parent)
chain: WIHCFEGVTAIIFCVALSDYDLVL

Variants of: B1
Test: protein stability index of a GFP-peptide fusion (GPS, HEK-293T) (PSI 1-6); higher = more stable;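 also: lentivirally expressed fusions sorted by FACS into six bins by GFP to DsRed ratio, PSI derived from sequencing read proportions per bin multiplied by bin number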
Conditions: c terminus: a fixed tail appended
Readout Label: protein stability index

>>> value_observed("WIHCFEGVTAIIFCVALQDYDLVL [S18Q]")
4.04
>>> value_observed("WIHCFEGVTAIIFAVALSDYDLVL [C14A]")
1.32
>>> value_observed("WIHCFEGVTAIIFCVTLSDYDLVL [A16T]")
3.18
>>> value_observed("WIHCFERVTAIIFCVALSDYDLVL [G7R]")
2.02
>>> value_observed("WIHCFEGVTAIIFCKALSDYDLVL [V15K]")
3.22
>>> value_observed("WIHCFGGVTAIIFCVALSDYDLVL [E6G]")
2.32
>>> value_observed("WIHSFEGVTAIIFCVALSDYDLVL [C4S]")
3.29
>>> value_observed("WIHCFEGDTAIIFCVALSDYDLVL [V8D]")
2.79
>>> value_observed("WIHCFEGVTAIIICVALSDYDLVL [F13I]")
4.07
>>> value_observed("WIHCFEGVKAIIFCVALSDYDLVL [T9K]")
2.17
>>> value_observed("WIHCFEGVTAIIFCVALSDYDSVL [L22S]")
3.61
>>> value_observed("WIHCFEGVTAIIFCVAHSDYDLVL [L17H]")
2.71
>>> value_observed("WIHCFEGRTAIIFCVALSDYDLVL [V8R]")
3.63
>>> value_observed("WIHCFEGVTAIIFCVALSDYGLVL [D21G]")
2.37
>>> value_observed("WIHCFEGVTAIIFCVALSDYDLCL [V23C]")
1.55
>>> value_observed("WIHCFEGVTAIIFNVALSDYDLVL [C14N]")
2.56
>>> value_observed("WIHCFEGVTAIIFCVALSDYDLNL [V23N]")
3.29
>>> value_observed("WIHCFEGVTAIIFCVALSDYDLHL [V23H]")
4
>>> value_observed("WIHCFEGVTAIIFCVALSDYWLVL [D21W]")
2.27
>>> value_observed("WIHCFEGVTAIIFCVALSDYDLPL [V23P]")
2.28
>>> value_observed("WIHCFEGVTAIIFCVALSDYCLVL [D21C]")
3.01
>>> value_observed("WIHCFRGVTAIIFCVALSDYDLVL [E6R]")
3.24

Numbers sourced from the supplement of paper PMC10567573.
